# experimental.details: soluble fraction after stress (log2 fold change); higher = more stays soluble; pooled small domains, quantitative proteomics
# conditions.used: stress: pH 4
property.measured: soluble fraction (log2)

Problem: Please report soluble fraction (log2) for the following sequence: "HMQGEVPYSQFLTEVDRGDVQSVVIEGNNISGFYKNSSTAFTVVAPDDPKLVERLMEQGVEVKARPV"
Result: ≥ 0.43

Problem: Please report soluble fraction (log2) for the following sequence: "HMSFSSLSNDILSEIQKDNNITYDELSEKLQKDRATIYRNMKKLVENGLLKRVGGRKSGHWEIIE"
Result: ≥ 0.43

Problem: Please report soluble fraction (log2) for the following sequence: "HMGTYSKQDLLQLIGRYPDGIGKREINLAFSKGTKIRNLLNIELNELLNERLITLSQGGLYIKP"
Result: ≥ 0.43
